Some compounds, each annotated with its measured AUC.
# Assay info: AUC in athymic CD-1 nude mouse at 10 mg/kg, po by LC-MS/MS analysis
# Format: ADME, organism-based
# Run parameters: in vivo

{"Compound": "Cc1cc(-c2cnn3c(NC[C@H]4CC[C@@H](O)CC4)cc(Oc4cccnc4)nc23)ccc1C(=O)NC1CC1", "AUC": "3400 ng·h/mL"}
{"Compound": "Cc1cc(-c2cnn3c(NCC4CCOCC4)cc(NC4CCCC4)nc23)ccc1C(=O)NC1CC1", "AUC": "4000 ng·h/mL"}
{"Compound": "Cc1cc(-c2cnn3c(NC[C@H]4C[C@@](C)(O)C4)cc(NC4CCCC4)nc23)ccc1C(=O)NC1CC1", "AUC": "7300 ng·h/mL"}

q: For Cc1cc(-c2cnn3c(NCC4CCOCC4)cc(N[C@H]4CCC[C@H]4O)nc23)ccc1C(=O)NC1CC1 , what is its reported AUC?
a: 1500 ng·h/mL

q: For Cc1cc(-c2cnn3c(NCC4CCOCC4)nc(NC4CCCC4)nc23)ccc1C(=O)NC1CC1 , what is its reported AUC?
a: 530 ng·h/mL

q: For Cc1cc(-c2cnn3c(NC[C@H]4C[C@H](O)C4)cc(Oc4cccnc4)nc23)ccc1C(=O)NC1CC1 , what is its reported AUC?
a: 130 ng·h/mL

q: For Cc1cc(-c2cnn3c(NC[C@H]4C[C@](C)(O)C4)cc(Oc4cccnc4)nc23)ccc1C(=O)NC1CC1 , what is its reported AUC?
a: 3900 ng·h/mL

q: For Cc1cc(-c2cnn3c(NC[C@H]4CC[C@H](O)CC4)cc(Oc4cccnc4)nc23)ccc1C(=O)NC1CC1 , what is its reported AUC?
a: 700 ng·h/mL

q: For Cc1cc(-c2cnn3c(NC[C@H]4C[C@@](C)(O)C4)cc(Oc4cccnc4)nc23)ccc1C(=O)NC1CC1 , what is its reported AUC?
a: 7500 ng·h/mL

q: For Cc1cc(-c2cnn3c(NCCN4CCOCC4)cc(Oc4ccccc4)nc23)ccc1C(=O)NC1CC1 , what is its reported AUC?
a: 2700 ng·h/mL

q: For Cc1cc(-c2cnn3c(NCC4CCOCC4)cc(N[C@H]4CCCC[C@H]4O)nc23)ccc1C(=O)NC1CC1 , what is its reported AUC?
a: 2400 ng·h/mL

q: For Cc1cc(-c2cnn3c(NCC4CCOCC4)nc(Oc4ccccc4)nc23)ccc1C(=O)NC1CC1 , what is its reported AUC?
a: 1500 ng·h/mL

q: For Cc1cc(-c2cnn3c(NCC4CCOCC4)cc(Oc4ccccc4)nc23)ccc1C(=O)NC1CC1 , what is its reported AUC?
a: 3100 ng·h/mL

---

# Assay info: Toxicity in po dosed athymic nude mouse
# Type: organism-based
# Run parameters: in vivo
Quantity: MTD (mg/kg)
Give just the number in mg/kg; leave the unit off.

Answered examples (3):
{"Compound": "Cc1cc(-c2cnn3c(NCC4CCOCC4)cc(N[C@@H](C4CC4)C(C)(C)O)nc23)ccc1C(=O)NC1CC1", "Units label": "mg/kg", "MTD": 15}
{"Compound": "Cc1cc(-c2cnn3c(NCCN4CCOCC4)cc(Oc4cccc(F)c4)nc23)ccc1C(=O)NC1CC1", "Units label": "mg/kg", "MTD": 6.5}
{"Compound": "Cc1cc(-c2cnn3c(NCC4CC4)cc(NC4CCCC[C@H]4O)nc23)ccc1C(=O)NC1CC1 (single isomer, unassigned)", "Units label": "mg/kg", "MTD": 15}

q: For Cc1cc(-c2cnn3c(NC[C@H]4C[C@@](C)(O)C4)cc(Oc4cccnc4)nc23)ccc1C(=O)NC1CC1 , what is its reported MTD?
a: 6.5
